experimental target: CYP3A4 (Homo sapiens, UniProt P08684)
Sequence (P08684 whole entry): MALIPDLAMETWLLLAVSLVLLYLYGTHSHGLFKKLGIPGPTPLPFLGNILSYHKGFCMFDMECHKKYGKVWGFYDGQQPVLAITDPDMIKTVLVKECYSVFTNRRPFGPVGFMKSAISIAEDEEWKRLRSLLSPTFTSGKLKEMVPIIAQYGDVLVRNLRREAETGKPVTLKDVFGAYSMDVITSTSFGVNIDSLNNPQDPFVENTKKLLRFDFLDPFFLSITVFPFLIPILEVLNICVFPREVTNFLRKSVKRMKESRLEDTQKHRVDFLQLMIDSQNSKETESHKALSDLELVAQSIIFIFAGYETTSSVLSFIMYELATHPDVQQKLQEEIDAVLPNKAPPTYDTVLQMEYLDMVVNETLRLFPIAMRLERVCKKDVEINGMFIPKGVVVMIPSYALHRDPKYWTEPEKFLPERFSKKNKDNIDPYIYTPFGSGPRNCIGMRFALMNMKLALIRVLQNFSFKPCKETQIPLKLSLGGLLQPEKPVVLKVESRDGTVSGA
assay notes: Determination of compound Kiapp against recombinant CYP3A4 enzyme (BFC fluorescent substrate)
Type: biochemical
test context: Super. enzyme preparation, read-out: Kiapp (BFC, Super.)
Recorded pKi values for a group of molecules are listed next.
Note on pKi: it is the negative log10 of concentration, concentration in mol/L.

Consider the following illustrative entries.
1. COCCNC(=O)c1ccccc1S(=O)(=O)Nc1cnccc1C	6.41
2. COc1cncc(NS(=O)(=O)c2ccccc2C(=O)NCc2ccc(F)c(F)c2)c1	8.96
3. COCCN(C(=O)c1ccccc1S(=O)(=O)Nc1cnccc1OC)C(C)C	6.55
4. O=C(NCc1ccccc1F)c1ccccc1S(=O)(=O)Nc1cccnc1	8.24

Exercise: What value of pKi has been recorded for this entry: `CN(Cc1ccc(F)cc1)C(=O)c1ccccc1S(=O)(=O)Nc1cccnc1`
Key: 7.68

Exercise: What value of pKi has been recorded for this entry: COc1cncc(NS(=O)(=O)c2ccccc2C(=O)NC(C)C(C)C)c1 (stereo not drawn)
Key: 7.31

Exercise: What value of pKi has been recorded for this entry: `CCOc1cncc(NS(=O)(=O)c2ccccc2C(=O)NC2CCCCC2)c1`
Key: 7.61

Exercise: What value of pKi has been recorded for this entry: COc1cncc(NS(=O)(=O)c2ccc(Cl)cc2C(=O)N2CCCC(C)C2)c1 (stereo not drawn)
Key: 7.38

Exercise: What value of pKi has been recorded for this entry: `COc1cncc(NS(=O)(=O)c2ccccc2C(=O)N(C)Cc2ccc(F)c(F)c2)c1`
Key: 8.14

Exercise: What value of pKi has been recorded for this entry: `COc1cncc(NS(=O)(=O)c2ccc(Cl)cc2C(=O)NCCC(C)C)c1`
Key: 7.38

Exercise: What value of pKi has been recorded for this entry: `COc1cncc(NS(=O)(=O)c2ccc(OCCN3CCNCC3)cc2C(=O)NCc2ccc(F)cc2)c1`
Key: 7.45

Exercise: What value of pKi has been recorded for this entry: `CCOc1cncc(NS(=O)(=O)c2ccccc2C(=O)NC(C)(C)C)c1`
Key: 7.49

Exercise: What value of pKi has been recorded for this entry: COc1cncc(NS(=O)(=O)c2ccc(F)cc2C(=O)N2CCCC(C)C2)c1 (stereo not drawn)
Key: 7.36

* * *

Recorded pIC50 values for a group of compounds are listed next.
experimental target: CYP3A4 (Homo sapiens)
assay notes: Determination of IC50 against CYP3A4 by measurement of inhibition of midazolam metabolism (human liver microsomes, 1-hydroxymidazolam by LC-MS/MS)
Assay type: biochemical
Design: 0.1 mg/mL human liver microsomes
test context: 2 μM midazolam, 0.1 mg/mL human liver microsomes
Note on pIC50: it is the negative log10 of concentration, concentration in mol/L.

1) CCOc1cncc(NS(=O)(=O)c2ccccc2C(=O)NC(C)(C)C)c1	7.62
2) COCCNC(=O)c1ccccc1S(=O)(=O)Nc1cccnc1	6.59
3) O=C(NCc1ccc2c(c1)CCO2)c1ccccc1S(=O)(=O)Nc1cccnc1	7.55
4) COc1cncc(NS(=O)(=O)c2ccccc2C(=O)NCc2c(F)ccc(C)c2F)c1	8.40
5) COc1cncc(NS(=O)(=O)c2ccccc2C(=O)NCc2ccc(Cl)cc2F)c1	7.42
6) COc1cncc(NS(=O)(=O)c2ccccc2C(=O)NCC(C)(C)C)c1	7.68
7) O=C(NCc1ccc2ncccc2c1)c1ccccc1S(=O)(=O)Nc1cccnc1	7.27

Let's switch to this compound now.
Exercise: What value of pIC50 has been recorded for this entry: `CCOc1cncc(NS(=O)(=O)c2ccccc2C(=O)NCc2ccc(Cl)c(Cl)c2)c1`
Key: 7.68

* * *

experimental target: CYP3A4 (Homo sapiens, UniProt P08684)
assay notes: Determination of compound Kiapp against recombinant CYP3A4 enzyme (BFC fluorescent substrate)
Assay type: biochemical
test context: Super. enzyme preparation, read-out: Kiapp (BFC, Super.)
quantity measured: pKi
Note on pKi: it is the negative log10 of concentration, concentration in mol/L.

Consider the following illustrative entries.
1. COc1cncc(NS(=O)(=O)c2ccccc2C(=O)NC(C)C2CC2)c1 (stereo not drawn) [Example 311]	7.12
2. COc1cncc(NS(=O)(=O)c2ccccc2C(=O)NCCc2cc(F)ccc2F)c1 [Example 197]	7.70
3. COc1cncc(NS(=O)(=O)c2ccccc2C(=O)NC(C)c2ccc(Cl)cc2)c1 (stereo not drawn) [Example 182]	8.46
4. Cc1cncc(NS(=O)(=O)c2ccccc2C(=O)NCc2ccc(C#N)cc2Cl)c1 [Example 91]	7.76
5. CCOc1ccncc1NS(=O)(=O)c1ccccc1C(=O)N(C)Cc1ccc(F)cc1 [Example 142]	7.93

Exercise: What value of pKi has been recorded for this entry: CCOc1ccncc1NS(=O)(=O)c1ccccc1C(=O)NCc1ccc(F)c(F)c1 [Example 252]
Key: 8.27

Exercise: What value of pKi has been recorded for this entry: COCCN(C)C(=O)c1ccccc1S(=O)(=O)Nc1cnccc1C [Example 170]
Key: 6.37

Exercise: What value of pKi has been recorded for this entry: COCCN(C(=O)c1ccccc1S(=O)(=O)Nc1cncc(C)c1)C(C)C [Example 130]
Key: 7.20

Exercise: What value of pKi has been recorded for this entry: COCCCNC(=O)c1ccccc1S(=O)(=O)Nc1cncc(OC)c1 [Example 236]
Key: 6.85

* * *

Recorded Ki values for a group of compounds are listed next.
experimental target: CYP3A4 (Homo sapiens)
assay notes: Determination of compound Kiapp against recombinant CYP3A4 enzyme (BFC fluorescent substrate)
Type: biochemical
test context: Super. enzyme preparation, read-out: Kiapp (BFC, Super.)

1. CCCN(CC)C(=O)c1ccccc1S(=O)(=O)Nc1cncc(OC)c1	35.6 nM
2. CC(C)CCNC(=O)c1ccccc1S(=O)(=O)Nc1cccnc1	22.5 nM
3. CCOc1cncc(NS(=O)(=O)c2ccccc2C(=O)NCc2ccc(F)c(C(F)(F)F)c2)c1	3.08 nM
4. Cc1cncc(NS(=O)(=O)c2ccccc2C(=O)NC(C)CC(C)C)c1 (stereo not drawn)	25.4 nM
5. CCCCNC(=O)c1ccccc1S(=O)(=O)Nc1cccnc1	42.4 nM

Exercise: What value of Ki has been recorded for this entry: `Cc1cncc(NS(=O)(=O)c2ccccc2C(=O)N2CCCC2)c1`
Key: 460 nM

Exercise: What value of Ki has been recorded for this entry: `CCOc1ccccc1CNC(=O)c1ccccc1S(=O)(=O)Nc1cccnc1`
Key: 12.9 nM

Exercise: What value of Ki has been recorded for this entry: `O=C(c1ccccc1S(=O)(=O)Nc1cccnc1)N1CCN(c2ccccn2)CC1`
Key: 83.3 nM

Exercise: What value of Ki has been recorded for this entry: `CCOc1ccncc1NS(=O)(=O)c1ccccc1C(=O)N(C)Cc1ccccc1F`
Key: 18 nM

* * *

Recorded IC50 values for a group of compounds are listed next.
experimental target: CYP3A4 (Homo sapiens, UniProt P08684)
assay notes: Determination of IC50 against CYP3A4 by measurement of inhibition of midazolam metabolism (human liver microsomes, 1-hydroxymidazolam by LC-MS/MS)
Assay type: biochemical
Parameters: 0.1 mg/mL human liver microsomes
test context: 2 μM midazolam, 0.1 mg/mL human liver microsomes
Expressed in nM, but write only the number.

Consider the following illustrative entries.
1) CCC(C)CNC(=O)c1ccccc1S(=O)(=O)Nc1cncc(OC)c1 (stereo not drawn)	9.5
2) CN(c1cccnc1)S(=O)(=O)c1ccccc1C(=O)NCC1CCCC1	13
3) COc1ccncc1NS(=O)(=O)c1ccccc1C(=O)NCCc1ccccc1F	15
4) COc1ccncc1NS(=O)(=O)c1ccccc1C(=O)NCCC(C)C	53
5) COc1cncc(N(C)S(=O)(=O)c2ccccc2C(=O)NCc2cccc(F)c2)c1	11

Exercise: What value of IC50 has been recorded for this entry: `COc1cncc(NS(=O)(=O)c2ccccc2C(=O)NCc2cccc(Cl)c2Cl)c1`
Key: 11

Exercise: What value of IC50 has been recorded for this entry: `CN(CC1CCCC1)C(=O)c1ccccc1S(=O)(=O)Nc1cccnc1`
Key: 11

Exercise: What value of IC50 has been recorded for this entry: `CC(C)CCNC(=O)c1ccccc1S(=O)(=O)Nc1cccnc1`
Key: 35.9

* * *

experimental target: CYP3A4 (Homo sapiens, UniProt P08684)
assay notes: Determination of compound Kiapp against recombinant CYP3A4 enzyme (BFC fluorescent substrate)
Type: biochemical
test context: Super. enzyme preparation, read-out: Kiapp (BFC, Super.)
Recorded pKi values for a group of compounds are listed next.
Note on pKi: it is the negative log10 of concentration, concentration in mol/L.

Consider the following illustrative entries.
1) COc1cncc(NS(=O)(=O)c2ccccc2C(=O)NCCC2CCCC2)c1	8.21
2) COc1cncc(NS(=O)(=O)c2ccccc2C(=O)N2CCC(OC)CC2)c1	7.19
3) COc1cncc(NS(=O)(=O)c2ccccc2C(=O)NCCc2ccccc2F)c1	8.19
4) CNC(=O)c1ccc(CNC(=O)c2ccccc2S(=O)(=O)Nc2cccnc2)cc1	6.56
5) Cc1cncc(NS(=O)(=O)c2ccccc2C(=O)N(C)Cc2ccc(C(F)(F)F)cc2)c1	8.23
6) COc1cncc(NS(=O)(=O)c2ccc(OCCN3CCOCC3)cc2C(=O)N(C)C(C)C)c1	7.05
7) CCC(C)NC(=O)c1ccccc1S(=O)(=O)Nc1cnccc1OC (stereo not drawn)	6.85
8) Cc1cncc(NS(=O)(=O)c2ccccc2C(=O)NCc2cc(Cl)cc(Cl)c2)c1	8.80
9) CCOc1ccncc1NS(=O)(=O)c1ccccc1C(=O)NC(C)CC (stereo not drawn)	7.15
10) COc1cncc(NS(=O)(=O)c2ccc(OCCCN(C)C)cc2C(=O)NCc2ccc(F)cc2)c1	7.57

Exercise: What value of pKi has been recorded for this entry: `CCCN(CC1CC1)C(=O)c1ccccc1S(=O)(=O)N(C)c1cncc(OC)c1`
Key: 7.75

Exercise: What value of pKi has been recorded for this entry: `Cc1cncc(NS(=O)(=O)c2ccccc2C(=O)NCc2ccc(F)c(C)c2)c1`
Key: 8.30

Exercise: What value of pKi has been recorded for this entry: `CCOCCNC(=O)c1ccccc1S(=O)(=O)Nc1cncc(C)c1`
Key: 6.92

Exercise: What value of pKi has been recorded for this entry: `Cc1cncc(NS(=O)(=O)c2ccccc2C(=O)N(C)CCc2ccccc2)c1`
Key: 7.67

Exercise: What value of pKi has been recorded for this entry: COc1cncc(NS(=O)(=O)c2ccccc2C(=O)NC(C)Cc2ccc(F)c(F)c2)c1 (stereo not drawn)
Key: 8.31

Exercise: What value of pKi has been recorded for this entry: `COc1cncc(NS(=O)(=O)c2ccc(Cl)cc2C(=O)N(C)C(C)C)c1`
Key: 6.84

Exercise: What value of pKi has been recorded for this entry: `Cc1cncc(NS(=O)(=O)c2ccccc2C(=O)NC(C(C)C)C(C)C)c1`
Key: 7.76

Exercise: What value of pKi has been recorded for this entry: `COc1cncc(NS(=O)(=O)c2ccccc2C(=O)NCc2cc(F)ccc2F)c1`
Key: 7.72
